The origin of these recorded values is ChEMBL document CHEMBL5053549.

molecular target: Serine/threonine-protein kinase PLK1 (Homo sapiens, UniProt P53350); assay: Inhibition of recombinant PLK1 (unknown origin) […] measured after 40 mins by ADP-glo luminescence kinase assay
Sequence (P53350 whole entry): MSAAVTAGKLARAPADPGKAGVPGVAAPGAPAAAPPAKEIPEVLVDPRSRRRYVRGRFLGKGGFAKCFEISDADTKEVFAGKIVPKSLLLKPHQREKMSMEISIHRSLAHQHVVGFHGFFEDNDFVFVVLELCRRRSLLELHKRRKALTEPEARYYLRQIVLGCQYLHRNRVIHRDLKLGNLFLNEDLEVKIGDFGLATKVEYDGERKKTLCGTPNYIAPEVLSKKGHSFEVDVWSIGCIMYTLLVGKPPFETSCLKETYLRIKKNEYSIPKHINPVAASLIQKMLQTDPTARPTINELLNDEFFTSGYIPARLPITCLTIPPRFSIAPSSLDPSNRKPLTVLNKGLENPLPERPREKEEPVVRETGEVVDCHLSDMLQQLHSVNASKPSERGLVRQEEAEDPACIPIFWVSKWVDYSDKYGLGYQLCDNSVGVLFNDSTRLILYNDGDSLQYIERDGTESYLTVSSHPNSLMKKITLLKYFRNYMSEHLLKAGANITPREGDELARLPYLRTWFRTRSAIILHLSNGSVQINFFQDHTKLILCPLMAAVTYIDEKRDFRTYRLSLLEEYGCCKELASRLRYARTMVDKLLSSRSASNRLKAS
Measurement label: IC50
The number alone won't do; follow it with the unit.

Recorded IC50 of CC[C@@H]1C(=O)N(C)c2cnc(N(C)c3ccc(-c4nc5c(C(N)=O)cccc5[nH]4)cc3OC)nc2N1C1CCCC1 , please.
2.03 µM

###

target: Bromodomain testis-specific protein (Homo sapiens); test: Inhibition of recombinant BRDT BD1 (unknown origin) incubated for 120 mins by TR-FRET assay
Measurement label: pIC50
Note: pIC50 values are expressed as the negative base-10 logarithm of concentration in M.

Recorded pIC50 of CC[C@@H]1C(=O)N(C)c2cnc(N(C)c3ccc(-c4nc5c(C(N)=O)cccc5[nH]4)cc3OC)nc2N1C1CCCC1 , please.
5.92
